# TARGET DESC: iNOS (Rattus norvegicus, UniProt Q06518)
# PROTOCOL TEXT: iNOS activity in lung homogenates from rats treated with bacterial endotoxin
# Assay type: biochemical
# Parameters: Lungs were obtained from rats which had been treated with bacterial endotoxin; from tissue; host or cells: lung homogenate from endotoxin-treated rats
# SETTINGS: comparing Tables 4 and 5; read-out: EC50 on iNOS
# Procedure: This Example illustrates the effect of selected mercapto and seleno derivatives on iNOS activity in lung homogenates prepared from rats treated with endotoxin. […] The homogenization buffer was composed of 50 mM tris-HCL, 0.1 mM EDTA, 0.1 mM EGTA and 1 mM phenylmethylsulfonyl chloride (pH 7.4). Cell suspensions were homogenized in the homogenization buffer on ice using a Tissue Tearor 985-370 homogenizer (BioSpec Products, Racine, Wis.).
METRIC NAME: EC50

Problem: # EC50 lookup, item N=C(N)NCCSSCCNC(=N)N [GED, guanidinoethyldisulfide]
Solution: 200 µM

* * *

# TARGET DESC: iNOS (Rattus norvegicus)
# PROTOCOL TEXT: Inhibition of iNOS activity in tissue homogenates (Table 2)
# Format: biochemical
# Set-up: bNOS in tissue homogenates; from tissue; host or cells: tissue homogenate
# SETTINGS: iNOS (Table 2)
pEC50: −log10 of the molar value.
Label rule, in plain words: pEC50 of 4 and up is Condition met, under 4 is Condition not met.

Problem: Would you say CCSCCNC(=N)N [S-ethyl-MEG] shows pEC50 at minimum 4?
Solution: Condition met

Problem: # check: pEC50 of CSCCNC(=N)N [S-methyl-MEG, S-methyl-mercaptoethylguanidine] is greater than or equal to 4
Solution: Condition met

Problem: Assess whether reported pEC50 for N=C(N)NCCS [MEG, mercaptoethylguanidine] sits at 4 or higher.
Solution: Condition met

Problem: Has N=C(NCCC[C@H](N)C(=O)O)N[N+](=O)[O-] [L-NA, N^G -Nitro-L-arginine, reference compound] a recorded pEC50 greater than or equal to 4?
Solution: Condition not met

Problem: Could you tell me if the measured pEC50 of CNC(=N)NCCC[C@H](N)C(=O)O [L-NMA, N^G -Methyl-L-arginine, reference compound] reaches 4 or more?
Solution: Condition met

Problem: Kindly determine if pEC50 recorded for N=C(N)NCCSSCCNC(=N)N [GED, guanidinoethyldisulfide] is above or exactly 4.
Solution: Condition not met

Problem: Does pEC50 meet or surpass 4 for N=C(N)NCCCS [MPG, mercaptopropylguanidine] ?
Solution: Condition met

* * *

# Test system: J774 macrophages
# PROTOCOL TEXT: Nitrite production by immunostimulated J774 macrophages (endotoxin 24 h, Griess)
# Type: cell-based, mouse
# SETTINGS: Mus musculus, J774, 24 h, read-out: EC50 for the inhibition of nitrite production by stimulated J774 macrophages
METRIC NAME: pEC50
Scale note: pEC50 = -log10(concentration in M).

Problem: Quick check: pEC50 of N=C(N)NN [Aminoguanidine, reference compound] ?
Solution: 3.92

* * *

# TARGET DESC: bNOS (Rattus norvegicus)
# Construct: bNOS activity was measured using similar methods in homogenates of whole rat brains; from tissue; host or cells: homogenate of whole rat brains
# Sequence (P29476 whole entry): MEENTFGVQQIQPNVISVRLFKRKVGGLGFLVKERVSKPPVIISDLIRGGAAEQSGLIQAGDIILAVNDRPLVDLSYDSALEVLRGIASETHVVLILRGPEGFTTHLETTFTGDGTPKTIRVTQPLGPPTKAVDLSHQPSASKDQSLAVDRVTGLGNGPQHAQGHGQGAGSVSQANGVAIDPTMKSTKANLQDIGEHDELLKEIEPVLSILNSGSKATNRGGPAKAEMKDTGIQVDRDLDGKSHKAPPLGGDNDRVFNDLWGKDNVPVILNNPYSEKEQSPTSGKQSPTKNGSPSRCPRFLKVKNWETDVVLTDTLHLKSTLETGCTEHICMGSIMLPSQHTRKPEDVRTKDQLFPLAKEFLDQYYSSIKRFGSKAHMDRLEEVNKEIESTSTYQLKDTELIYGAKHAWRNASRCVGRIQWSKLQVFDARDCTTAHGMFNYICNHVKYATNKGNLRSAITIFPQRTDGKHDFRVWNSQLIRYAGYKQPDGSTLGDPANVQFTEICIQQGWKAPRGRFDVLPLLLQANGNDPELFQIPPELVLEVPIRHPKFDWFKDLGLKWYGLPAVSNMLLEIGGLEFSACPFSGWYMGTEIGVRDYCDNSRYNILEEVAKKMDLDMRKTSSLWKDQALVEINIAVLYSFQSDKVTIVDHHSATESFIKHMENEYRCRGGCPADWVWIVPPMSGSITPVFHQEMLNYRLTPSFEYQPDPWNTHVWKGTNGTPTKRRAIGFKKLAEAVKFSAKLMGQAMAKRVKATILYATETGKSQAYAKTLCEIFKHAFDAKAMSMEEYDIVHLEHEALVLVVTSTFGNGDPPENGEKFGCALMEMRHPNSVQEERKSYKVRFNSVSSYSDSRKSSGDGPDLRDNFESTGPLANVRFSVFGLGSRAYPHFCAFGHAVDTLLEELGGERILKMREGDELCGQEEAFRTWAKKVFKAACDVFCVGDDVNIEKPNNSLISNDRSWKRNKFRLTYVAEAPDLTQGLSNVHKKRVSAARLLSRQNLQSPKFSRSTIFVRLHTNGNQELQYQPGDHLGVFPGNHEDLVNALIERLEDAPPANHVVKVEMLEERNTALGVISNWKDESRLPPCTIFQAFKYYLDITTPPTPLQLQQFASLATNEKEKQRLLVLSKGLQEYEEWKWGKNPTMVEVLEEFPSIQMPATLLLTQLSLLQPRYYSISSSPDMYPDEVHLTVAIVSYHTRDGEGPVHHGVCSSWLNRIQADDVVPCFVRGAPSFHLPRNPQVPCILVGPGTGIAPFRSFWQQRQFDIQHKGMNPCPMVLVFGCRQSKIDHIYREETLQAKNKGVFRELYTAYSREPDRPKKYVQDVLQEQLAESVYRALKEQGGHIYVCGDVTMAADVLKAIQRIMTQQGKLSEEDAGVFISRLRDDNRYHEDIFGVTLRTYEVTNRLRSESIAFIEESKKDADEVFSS
# PROTOCOL TEXT: bNOS activity in homogenates of whole rat brains
# Assay type: biochemical
Field: pEC50. Provide a value for each of the compounds that follow.
When answering, recall that pEC50 equals minus log10 of the concentration in mol/L, and write that number alone.

Problem: Record lookup: for bNOS (Rattus norvegicus), what pEC50 belongs to N=C(N)NCCCS [MPG, mercaptopropylguanidine] ?
Solution: 4.10

Problem: // map N=C(N)NCCSSCCNC(=N)N [GED, guanidinoethyldisulfide] to recorded pEC50 (system: bNOS (Rattus norvegicus))
Solution: 3.74

Problem: Which pEC50 is reported with bNOS (Rattus norvegicus) for this entry: CCSCCNC(=N)N [S-ethyl-MEG] ?
Solution: 3.34

Problem: Enter reported pEC50 observed with bNOS (Rattus norvegicus) for CSCCNC(=N)N [S-methyl-MEG, S-methyl-mercaptoethylguanidine]
Solution: 5.10

Problem: # get_value(readout= pEC50, system= bNOS (Rattus norvegicus)) for N=C(N)NCCS [MEG, mercaptoethylguanidine]
Solution: 4.22

* * *

# TARGET DESC: iNOS (Rattus norvegicus, UniProt Q06518)
# PROTOCOL TEXT: iNOS activity in lung homogenates from rats treated with bacterial endotoxin
# Assay type: biochemical
# Parameters: Lungs were obtained from rats which had been treated with bacterial endotoxin; from tissue; host or cells: lung homogenate from endotoxin-treated rats
METRIC NAME: EC50 (µM)
Provide the reading as a plain figure in µM.

Problem: What value of EC50 has been recorded for this entry: "N=C(N)NCC[SeH]"
Solution: 10

* * *

# TARGET DESC: ecNOS (Bos taurus, UniProt P29473)
# Construct: the intimal surface of fresh bovine aortae was scraped and homogenized; from tissue; host or cells: homogenate of intimal scrapings of fresh bovine aortae
# PROTOCOL TEXT: ecNOS activity from intimal scrapings of fresh bovine aortae (conversion of [3H]-L-arginine to [3H]-L-citrulline)
# Type: biochemical
# SETTINGS: n=6; bovine aorta; read-out: EC50, dose dependent inhibition of ecNOS activity
METRIC NAME: pEC50
Value format note: pEC50 is -log10 of concentration (mol/L); just state the number.

Problem: Can you look up pEC50 on ecNOS (Bos taurus, UniProt P29473) for COC(=O)[C@@H](N)CCCNC(=N)N[N+](=O)[O-] [L-NAME, NG-nitro-L-arginine methyl ester, reference compound] ?
Solution: 5.70

* * *

# TARGET DESC: ecNOS (Bos taurus, UniProt P29473)
# Construct: the intimal surface of fresh bovine aortae was scraped and homogenized; from tissue; host or cells: homogenate of intimal scrapings of fresh bovine aortae
# PROTOCOL TEXT: ecNOS activity from intimal scrapings of fresh bovine aortae (conversion of [3H]-L-arginine to [3H]-L-citrulline)
# Type: biochemical
# SETTINGS: ecNOS (Table 2); read-out: EC50 for inhibition of ecNOS activity in tissue homogenates
Give measured EC50 for each item. Keep answers brief.
Your answer is read as µM, so omit the unit and give the number.

Problem: Fill in: EC50 of "N=C(N)NCCCS" is ___
Solution: 4

Problem: Consider the molecule shown here: N=C(N)NN [Aminoguanidine, reference compound] What is its recorded EC50?
Solution: 2600

Problem: Item under review: N=C(N)NCCSSCCNC(=N)N [GED, guanidinoethyldisulfide] . Reported EC50?
Solution: 630

Problem: Which measured EC50 value corresponds to "CSCCNC(=N)N" ?
Solution: 43

Problem: Would you kindly share the measured EC50 for "CCSCCNC(=N)N" ?
Solution: 850

Problem: Returns the measured EC50 for the input molecule. Input: "N=C(N)NCCS"
Solution: 110

* * *

# TARGET DESC: ecNOS (Bos taurus)
# Construct: the intimal surface of fresh bovine aortae was scraped and homogenized; from tissue; host or cells: homogenate of intimal scrapings of fresh bovine aortae
# PROTOCOL TEXT: ecNOS activity from intimal scrapings of fresh bovine aortae (conversion of [3H]-L-arginine to [3H]-L-citrulline)
# Format: biochemical
METRIC NAME: pEC50
Reminder that pEC50 is minus the log10 of a molar concentration.

Problem: Quick check: pEC50 of "N=C(N)NCC[SeH]" ?
Solution: 3.22

FYI, the data here is from patent US5929063A.
